Data origin: ChEMBL document CHEMBL1201862

Test system: DLD-1
Assay: NCI tumour cell line growth inhibition, 48 h
The source made the active and inactive calls. Cut-off read from the data, not from the text of the source: active = GI50 up to about 1.1 µM and inactive = higher.
Labels: active, inactive

compound="COC(=O)[C@@H]1c2cc3c(c(O)c2[C@@H](OC2OC(C)C(OC)C(C)(OC)C2OC)C[C@]1(C)O)C(=O)c1c(O)cc2c(c1C3=O)O[C@H]1O[C@]2(C)[C@H](O)[C@@H](N(C)C)[C@@H]1O (stereo not given in full)" group=active
compound=CC1=CC(=O)NCCN1C group=inactive
compound=COc1ccc(C(=O)O)c(Cc2cccc3ccccc23)c1 group=inactive
compound=O=C(NCCOC(=O)CCCCCCCCC(=O)OCCNC(=O)NC(=O)c1cn(Cc2ccccc2)c(=O)[nH]c1=O)NC(=O)c1cn(Cc2ccccc2)c(=O)[nH]c1=O group=inactive
compound=O=[N+]([O-])c1ccc(Sc2c3ccccc3nc3cc(Cl)ccc23)cc1 group=inactive
compound="COc1cc(C2c3cc4c(cc3C(NCC(O)CO)C3COC(=O)[C@H]23)OCO4)cc(OC)c1OC (stereo not given in full)" group=active
compound=O=c1c([Se]c2coc3ccccc3c2=O)coc2ccccc12 group=inactive
compound=O=C1/C(=C/c2ccccc2)CCC/C1=C\c1ccccc1 group=inactive
compound=CN(/N=C/c1cccc2cccnc12)c1ccc([N+](=O)[O-])cc1[N+](=O)[O-] group=inactive
compound=COC(=O)c1ncc2c(=O)[nH]c3ccccc3c2c1C(=O)OC group=inactive
